- experimental-target: T1, human MICB005 on cells (human)
- T1 construct: whole, on cells; also called CHO-MICB005; C1R-MICB005
- test: flow cytometry, CHO-MICB005 cells
Each item that follows carries a reported EC50.
Unit µg/mL implied. Number only.

binder: 3F9 (antibody, human IgG1, kappa, V domains shown, also called benchmark 3F9) VH: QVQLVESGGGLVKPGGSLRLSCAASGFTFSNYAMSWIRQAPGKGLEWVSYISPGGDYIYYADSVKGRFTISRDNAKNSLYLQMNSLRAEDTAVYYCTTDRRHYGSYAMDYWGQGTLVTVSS VL: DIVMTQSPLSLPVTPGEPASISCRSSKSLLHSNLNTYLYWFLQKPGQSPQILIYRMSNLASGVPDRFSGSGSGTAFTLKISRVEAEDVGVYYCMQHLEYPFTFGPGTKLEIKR
reading-unit: µg/mL
EC50: 0.572

binder: #38 (antibody, human IgG1, V domains shown, also called PL114H02; Hit ID 38) VH: QVQLQQSGAELARPGASVKLSCKASGYTFSIHWMQWVKQRPGQGLEWIGAIYPGNGDTKYTQKFKGKATLTADKSSSTAYMQLSNLASEDSAVYYCATLYGNYEAYWGQGTLVTVSA VL: DIVLTQSPASLSASVGETVTITCGASENIYGALNWYQRKQGKSPQLLIYGTTNLADGMSSRFSGSGSGRQYSLKISSLHPDDVATYYCQNVLTTPPWTFGGGTKLEIK
reading-unit: µg/mL
EC50: 1.42

binder: #36 (antibody, human IgG1, V domains shown, also called PL116H11; Hit ID 36) VH: QVQLQQSGPELVKPGASVKVSCKASGYAFTKYNIYWVKQSHGKSLEWIGYIDPYNGGTVYNQKFKGKATLTVDKSSSTAYMHLNSLTSEDSAVYYCATTDGYSLFTYWGQGTLVTVSA VL: DIQMTQTTSSLSASLGDRVTISCRASQDISNYLNWYQQKPDGTVKLLIYYTSRLHSGVPSRFSGSGSGTDYSLTISNLEQEDIATYFCQQGNTLPFTFGSGTKLEIK
reading-unit: µg/mL
EC50: 0.249

binder: #40 (antibody, human IgG1, V domains shown, also called PL113C03; Hit ID 40) VH: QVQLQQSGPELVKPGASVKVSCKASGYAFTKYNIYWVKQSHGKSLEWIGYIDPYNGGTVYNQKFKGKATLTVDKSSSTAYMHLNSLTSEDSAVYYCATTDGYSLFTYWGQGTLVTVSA VL: DIQMTQTTSSLSASLGDRVTITCSAGQGINNYLNWYQQKPDGTVKLLIFYTSSLQSGVPSRFSGSGSGADYSLTISNLEPEDIATYYCQQYSKLPLTFGAGTKLELK
reading-unit: µg/mL
EC50: 0.445

binder: #34 (antibody, human IgG1, V domains shown, also called PL111H04; Hit ID 34) VH: QVQLKQSGPELVKPGASVKVSCKASGYAFTKYNIYWVKQSHGKSLEWIGYIDPYNGGTVQNQKFKGKATLTVDKSSSTAYMHLNSLTSEDSAVYYCATTDGYSLFTYWGQGTLVTVSS VL: DIVLTQSPTTMAASPGEKITITCSASSSISSNYLHWYQQKPGFSPKLLIYRTSNLASGVPARFSGSGSGTSYSLTIGTMEAEDVATYYCQQGSSIPFTFGSGTKLEIK
reading-unit: µg/mL
EC50: 0.278

Q. For the binder 13A9 (antibody, human IgG1, kappa, V domains shown) VH: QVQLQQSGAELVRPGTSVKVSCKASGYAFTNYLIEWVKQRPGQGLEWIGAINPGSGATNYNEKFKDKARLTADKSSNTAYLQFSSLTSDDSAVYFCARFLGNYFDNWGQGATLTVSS VL: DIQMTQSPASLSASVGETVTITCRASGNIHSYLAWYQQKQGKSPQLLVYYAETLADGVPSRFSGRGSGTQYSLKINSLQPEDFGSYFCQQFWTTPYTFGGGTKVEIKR , give its reported EC50.
A. 1.71

Q. For the binder 1D5 (antibody, human IgG1, kappa, V domains shown, also called ID5) VH: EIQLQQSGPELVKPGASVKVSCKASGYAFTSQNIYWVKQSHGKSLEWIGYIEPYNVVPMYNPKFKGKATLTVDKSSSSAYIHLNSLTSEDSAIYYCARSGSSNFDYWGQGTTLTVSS VL: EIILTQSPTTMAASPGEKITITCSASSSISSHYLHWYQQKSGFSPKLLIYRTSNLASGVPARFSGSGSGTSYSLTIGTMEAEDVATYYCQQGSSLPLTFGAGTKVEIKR , give its reported EC50.
A. 0.152
